Biological target: SMARCA2 (Homo sapiens)
Test: HiBiT assay for protein degradation, Hela SMARCA2-HiBiT cells (A series)
Type: cell-based
Design: Hela cells were genetically modified via CRISPR/Cas9 to fuse HiBiT to the carboxy terminus of SMARCA2; host or cells: HeLa (CRISPR/Cas9 HiBiT knock-in)
Conditions: read-out: SMARC A2 Hela HiBit DC50; Hela SMARCA2-HiBiT cells, 24 hours treatment
PROPERTY: DC50

# example entries with known answers
MOLECULE: Cc1ncsc1-c1ccc([C@H](C)NC(=O)[C@@H]2C[C@@H](O)CN2C(=O)[C@@H](NC(=O)[C@H]2CC[C@H](CN3CCC(c4ccc5c(c4)-n4c(nc(=O)c6c(Cl)cccc64)C54CCCCC4)CC3)CC2)C(C)(C)C)cc1
TEST TARGET: SMARCA2 (Homo sapiens)
REPORTED MEASUREMENT: < 100 nM
//
MOLECULE: Cc1ncsc1-c1ccc([C@H](CN2CCOCC2)NC(=O)[C@@H]2C[C@@H](O)CN2C(=O)[C@@H](n2cc(C3CCC(CN4CCC(c5ccc6c(c5)-n5c(nc(=O)c7ccccc75)C65CCCCC5)CC4)CC3)nn2)C(C)(C)C)cc1 (stereo partly drawn)
TEST TARGET: SMARCA2 (Homo sapiens)
REPORTED MEASUREMENT: > 1000 nM
//
MOLECULE: COCCOCCOCC[C@H](NC(=O)[C@@H]1C[C@@H](O)CN1C(=O)[C@@H](n1cc([C@H]2CC[C@H](CN3CCC(c4ccc5c(c4)-n4c(nc(=O)c6c(Cl)cccc64)C54CCCCC4)CC3)CC2)nn1)C(C)(C)C)c1ccc(-c2scnc2C)cc1
TEST TARGET: SMARCA2 (Homo sapiens)
REPORTED MEASUREMENT: < 10 nM
//
MOLECULE: Cc1ncsc1-c1ccc([C@H](CN2CCOCC2)NC(=O)[C@@H]2C[C@@H](O)CN2C(=O)[C@@H](n2cc([C@H]3CC[C@H](CN4CCC(c5ccc6c(n5)-n5c(nc(=O)c7c(Br)cccc75)C65CCCCC5)CC4)CC3)nn2)C(C)(C)C)cc1
TEST TARGET: SMARCA2 (Homo sapiens)
REPORTED MEASUREMENT: < 100 nM
//
MOLECULE: Cc1ncsc1-c1ccc([C@H](CCN2CC(C)(O)C2)NC(=O)[C@@H]2C[C@@H](O)CN2C(=O)[C@@H](n2cc([C@H]3CC[C@H](CN4CCC(c5ccc6c(c5)-n5c(nc(=O)c7c(Cl)cccc75)C65CCCCC5)CC4)CC3)nn2)C(C)(C)C)cc1
TEST TARGET: SMARCA2 (Homo sapiens)
REPORTED MEASUREMENT: 10 to 100 nM

Which measured DC50 value corresponds to `Cc1ncsc1-c1ccc([C@H](CN2CCOCC2)NC(=O)[C@@H]2C[C@@H](O)CN2C(=O)[C@@H](n2cc(C3CCN(CC4CCN(c5ccc6c(c5)-n5c(nc(=O)c7c(Br)cccc75)C65CCCCC5)CC4)CC3)nn2)C(C)(C)C)cc1` ? > 1000 nM

====

Biological target: SMARCA4 (Homo sapiens, UniProt P51532)
Sequence (P51532 whole entry): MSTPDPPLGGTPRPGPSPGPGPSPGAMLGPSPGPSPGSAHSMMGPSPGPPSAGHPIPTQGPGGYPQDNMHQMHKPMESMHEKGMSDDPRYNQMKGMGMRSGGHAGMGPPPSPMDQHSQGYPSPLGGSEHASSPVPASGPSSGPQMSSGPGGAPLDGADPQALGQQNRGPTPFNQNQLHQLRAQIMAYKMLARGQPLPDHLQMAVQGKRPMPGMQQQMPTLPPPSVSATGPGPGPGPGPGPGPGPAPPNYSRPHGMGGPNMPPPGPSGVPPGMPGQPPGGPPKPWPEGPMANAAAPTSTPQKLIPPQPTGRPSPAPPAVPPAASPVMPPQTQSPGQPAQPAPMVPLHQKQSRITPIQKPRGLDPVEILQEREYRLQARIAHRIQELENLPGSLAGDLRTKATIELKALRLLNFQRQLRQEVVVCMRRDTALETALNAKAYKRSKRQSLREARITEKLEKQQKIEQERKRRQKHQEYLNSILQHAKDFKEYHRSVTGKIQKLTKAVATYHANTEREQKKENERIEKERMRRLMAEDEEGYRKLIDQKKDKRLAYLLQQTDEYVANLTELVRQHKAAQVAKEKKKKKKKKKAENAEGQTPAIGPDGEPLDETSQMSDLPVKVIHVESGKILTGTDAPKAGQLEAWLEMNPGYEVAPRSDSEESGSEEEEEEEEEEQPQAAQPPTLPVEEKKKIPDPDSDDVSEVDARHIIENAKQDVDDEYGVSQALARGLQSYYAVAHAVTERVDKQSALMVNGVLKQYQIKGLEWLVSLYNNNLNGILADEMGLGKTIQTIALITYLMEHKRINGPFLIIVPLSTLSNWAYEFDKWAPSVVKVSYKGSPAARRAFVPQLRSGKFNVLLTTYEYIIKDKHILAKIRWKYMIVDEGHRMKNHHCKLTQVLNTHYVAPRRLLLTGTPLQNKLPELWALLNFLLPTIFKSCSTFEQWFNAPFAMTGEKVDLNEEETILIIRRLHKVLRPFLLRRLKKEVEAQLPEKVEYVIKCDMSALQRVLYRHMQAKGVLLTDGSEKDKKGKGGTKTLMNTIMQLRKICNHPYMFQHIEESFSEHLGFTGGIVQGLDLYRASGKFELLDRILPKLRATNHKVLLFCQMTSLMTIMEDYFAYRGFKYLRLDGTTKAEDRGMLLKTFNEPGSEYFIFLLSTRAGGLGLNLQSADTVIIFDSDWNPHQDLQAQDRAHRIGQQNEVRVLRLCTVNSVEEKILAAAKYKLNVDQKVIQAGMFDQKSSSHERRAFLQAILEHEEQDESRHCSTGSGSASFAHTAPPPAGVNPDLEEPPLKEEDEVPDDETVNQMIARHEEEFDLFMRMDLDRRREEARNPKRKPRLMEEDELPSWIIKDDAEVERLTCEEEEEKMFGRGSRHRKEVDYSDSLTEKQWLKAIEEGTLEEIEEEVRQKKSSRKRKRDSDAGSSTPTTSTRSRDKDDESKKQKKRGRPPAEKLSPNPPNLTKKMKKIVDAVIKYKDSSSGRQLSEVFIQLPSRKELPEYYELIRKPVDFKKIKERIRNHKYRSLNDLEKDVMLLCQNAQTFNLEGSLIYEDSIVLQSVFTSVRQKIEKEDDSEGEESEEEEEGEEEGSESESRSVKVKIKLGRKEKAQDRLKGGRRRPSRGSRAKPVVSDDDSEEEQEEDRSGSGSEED
Experiment: HiBit assay in engineered HT1080 CRISPR knock-in cell, 6 hrs (B series), SMARCA4
Assay type: cell-based
Settings: HT-1080, HT1080 CRISPR knock-in cells, 6 hrs incubation; read-out: SMARC A4 HT1080 HiBit Dmax(%)
PROPERTY: Dmax

# example entries with known answers
COMPOUND: C[C@H](NC(=O)[C@@H]1C[C@@H](O)CN1C(=O)[C@@H](n1cc([C@H]2CC[C@H](CN3CCC(c4ccc5c(c4)-n4c(nc(=O)c6c(Cl)cccc64)C5(C)C)CC3)CC2)nn1)C(C)(C)C)c1ccc(-c2scnc2C#CCN2CCOCC2)cc1 [Compound B156]
TEST TARGET: SMARCA4 (Homo sapiens, UniProt P51532)
PROPERTY: Dmax
REPORTED MEASUREMENT: 50 to 69%
--
COMPOUND: Cc1ncsc1-c1ccc([C@H](C)NC(=O)[C@@H]2C[C@@H](O)CN2C(=O)[C@@H](c2cc(OCCCn3cc(-c4ccc5c(c4)-n4c(nc(=O)c6c(Cl)cccc64)C5(C)C)cn3)no2)C(C)C)cc1 [Compound B72]
TEST TARGET: SMARCA4 (Homo sapiens, UniProt P51532)
PROPERTY: Dmax
REPORTED MEASUREMENT: < 50%
--
COMPOUND: Cc1ncsc1-c1ccc([C@H](C)NC(=O)[C@@H]2C[C@@H](O)CN2C(=O)[C@@H](c2cc(N3CCC(CN4CCN(c5ccc6c(c5)-n5c(nc(=O)c7c(Cl)cccc75)C6(C)C)CC4)CC3)no2)C(C)C)cc1 [Compound B111]
TEST TARGET: SMARCA4 (Homo sapiens, UniProt P51532)
PROPERTY: Dmax
REPORTED MEASUREMENT: 50 to 69%
--
COMPOUND: C=C[C@H](NC(=O)[C@@H]1C[C@@H](O)CN1C(=O)[C@@H](NC(=O)[C@H]1CC[C@H](CN2CCC(c3ccc4c(c3)C(C)(C)c3nc(=O)c5c(Cl)cccc5n3-4)CC2)CC1)C(C)(C)C)c1ccc(-c2scnc2C)cc1 [Compound B79]
TEST TARGET: SMARCA4 (Homo sapiens, UniProt P51532)
PROPERTY: Dmax
REPORTED MEASUREMENT: < 50%
--
COMPOUND: Cc1cc(C(C(=O)N2C[C@H](O)C[C@H]2C(=O)N[C@@H](CN2CCC(N3CCC(c4cccc5c4C(C)(C)c4nc(=O)c6c(Cl)cccc6n4-5)CC3)CC2)c2ccc(-c3scnc3C)cc2)C(C)C)on1 (stereo partly shown) [Compound B155]
TEST TARGET: SMARCA4 (Homo sapiens, UniProt P51532)
PROPERTY: Dmax
REPORTED MEASUREMENT: 70 to 90%

Short answer please: Dmax, SMARCA4 (Homo sapiens, UniProt P51532), entry Cc1ncsc1-c1ccc([C@H](C)NC(=O)[C@@H]2C[C@@H](O)CN2C(=O)C(c2cc(OCCCCn3cc(-c4ccc5c(c4)C(C)(C)c4nc(=O)c6c(Cl)cccc6n4-5)cn3)no2)C(C)C)cc1 (stereo partly shown) [Compound B99] < 50%

====

Listed next: entries and their corresponding Dmax.
Biological target: SMARCA4 (Homo sapiens)
Assay: HiBiT assay for protein degradation, Hela SMARCA4-HiBiT cells (A series)
Type: cell-based
Design: fuse HiBiT to the carboxy terminus of SMARCA2 (Promega CS302365) or SMARCA4 (Promega CS3023225); host or cells: HeLa (CRISPR/Cas9 HiBiT knock-in)
Conditions: HeLa, read-out: SMARC A4 Hela HiBit Dmax(%)

Short answer please: Dmax, SMARCA4 (Homo sapiens), entry Cc1ncsc1-c1ccc([C@H](C)NC(=O)[C@@H]2C[C@@H](O)CN2C(=O)[C@@H](NC(=O)CCN2CCC(c3ccc4c(c3)C3(CCCCC3)c3nc(=O)c5c(Cl)cccc5n3-4)CC2)C(C)(C)C)cc1 [Compound A6] 50 to 69%

Short answer please: Dmax, SMARCA4 (Homo sapiens), entry Cc1ncsc1-c1ccc([C@H](C)NC(=O)[C@@H]2C[C@@H](O)CN2C(=O)[C@@H](NC(=O)[C@H]2CC[C@H](CN3CCC(c4ccc5c(c4)C4(CCCCC4)c4nc(=O)c6c(Cl)cccc6n4-5)CC3)CC2)C(C)(C)C)cc1 [Compound A11] < 50%

====

Target: SMARCA2 (Homo sapiens, UniProt P51531)
Sequence (P51531 whole entry): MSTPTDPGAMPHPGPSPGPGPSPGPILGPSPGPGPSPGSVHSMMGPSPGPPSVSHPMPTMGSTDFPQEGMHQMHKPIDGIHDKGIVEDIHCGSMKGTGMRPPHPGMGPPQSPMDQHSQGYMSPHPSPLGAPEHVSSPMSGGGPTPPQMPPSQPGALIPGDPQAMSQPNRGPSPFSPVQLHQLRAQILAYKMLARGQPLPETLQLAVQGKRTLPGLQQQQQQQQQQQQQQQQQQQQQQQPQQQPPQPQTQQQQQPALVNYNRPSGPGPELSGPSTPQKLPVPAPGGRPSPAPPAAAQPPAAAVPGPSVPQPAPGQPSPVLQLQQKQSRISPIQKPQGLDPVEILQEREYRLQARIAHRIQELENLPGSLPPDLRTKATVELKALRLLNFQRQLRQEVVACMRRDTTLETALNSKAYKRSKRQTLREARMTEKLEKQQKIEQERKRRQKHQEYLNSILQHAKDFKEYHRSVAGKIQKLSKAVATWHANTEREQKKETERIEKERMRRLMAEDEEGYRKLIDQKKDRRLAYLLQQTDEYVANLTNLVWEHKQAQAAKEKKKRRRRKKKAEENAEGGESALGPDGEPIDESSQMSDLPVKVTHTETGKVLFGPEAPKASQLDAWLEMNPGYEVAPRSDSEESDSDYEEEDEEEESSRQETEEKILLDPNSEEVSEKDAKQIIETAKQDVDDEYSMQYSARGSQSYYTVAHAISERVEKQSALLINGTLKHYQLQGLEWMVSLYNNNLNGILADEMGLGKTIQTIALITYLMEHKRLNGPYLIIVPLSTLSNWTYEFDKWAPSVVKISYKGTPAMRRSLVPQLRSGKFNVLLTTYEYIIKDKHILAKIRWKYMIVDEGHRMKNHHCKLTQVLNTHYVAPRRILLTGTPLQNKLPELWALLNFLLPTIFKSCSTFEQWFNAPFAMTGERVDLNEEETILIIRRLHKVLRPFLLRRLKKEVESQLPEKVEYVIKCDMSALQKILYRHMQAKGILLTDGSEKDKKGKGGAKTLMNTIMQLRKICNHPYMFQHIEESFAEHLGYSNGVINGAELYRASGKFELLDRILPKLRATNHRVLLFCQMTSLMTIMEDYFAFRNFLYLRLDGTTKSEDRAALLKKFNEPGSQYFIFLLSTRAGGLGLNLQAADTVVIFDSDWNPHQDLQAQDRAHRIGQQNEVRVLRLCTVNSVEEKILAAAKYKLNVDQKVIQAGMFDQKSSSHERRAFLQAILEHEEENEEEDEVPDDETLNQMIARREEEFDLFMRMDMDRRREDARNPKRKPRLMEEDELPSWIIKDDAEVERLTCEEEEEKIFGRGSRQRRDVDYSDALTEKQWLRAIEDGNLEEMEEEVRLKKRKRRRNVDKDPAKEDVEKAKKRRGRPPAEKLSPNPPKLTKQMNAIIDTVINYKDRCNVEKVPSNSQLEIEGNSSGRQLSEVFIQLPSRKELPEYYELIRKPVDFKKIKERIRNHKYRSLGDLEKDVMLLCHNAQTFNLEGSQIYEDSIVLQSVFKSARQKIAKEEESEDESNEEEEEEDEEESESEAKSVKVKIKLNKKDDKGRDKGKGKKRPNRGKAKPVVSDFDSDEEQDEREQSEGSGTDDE
Experiment: HiBiT assay for protein degradation, Hela SMARCA2-HiBiT cells (A series);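 on SMARC A2 Hela HiBit Dmax (%): 24 h compound treatment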
Type: cell-based
Set-up: Hela cells were genetically modified via CRISPR/Cas9 to fuse HiBiT to the carboxy terminus of SMARCA2; host or cells: HeLa (CRISPR/Cas9 HiBiT knock-in)
Details: Hela SMARCA2-HiBiT cells, 24 hours treatment; read-out: SMARC A2 Hela HiBit Dmax (%)
PROPERTY: Dmax

# example entries with known answers
QUERY SMILES: Cc1ncsc1-c1ccc([C@H](C)NC(=O)[C@@H]2C[C@@H](O)CN2C(=O)[C@H](C2CCN(C(=O)CCCCN3CCC(c4ccc5c(c4)-n4c(nc(=O)c6c(Cl)cccc64)C54CCCCC4)CC3)CC2)n2cc(C3CC3)nn2)cc1
Dmax: 70 to 90%
//
QUERY SMILES: CC(=O)N1CCC([C@@H](C(=O)N2C[C@H](O)C[C@H]2C(=O)N[C@@H](C)c2ccc(-c3scnc3C)cc2)n2cc([C@H]3CC[C@H](CN4CCC(c5ccc6c(c5)-n5c(nc(=O)c7c(Cl)cccc75)C65CCCCC5)CC4)CC3)nn2)CC1
Dmax: > 90%
//
QUERY SMILES: CC(C)(C)[C@@H](C(=O)N1C[C@H](O)C[C@H]1C(=O)N[C@@H](CN1CCOCC1)c1ccc(-c2scnc2C(F)(F)F)cc1)n1cc([C@H]2CC[C@H](CN3CCC(c4ccc5c(c4)-n4c(nc(=O)c6c(Cl)cccc64)C54CCCCC4)CC3)CC2)nn1
Dmax: < 50%

// next item, Dmax requested
Which measured Dmax value corresponds to `Cc1ncsc1-c1ccc([C@H](CC(=O)N2CCC(c3ccc4c(c3)-n3c(nc(=O)c5c(Cl)cccc53)C43CCCCC3)CC2)NC(=O)[C@@H]2C[C@@H](O)CN2C(=O)[C@@H](n2cc(C3CC3)nn2)C(C)(C)C)cc1` ? 70 to 90%
